pIC50: −log10 of the molar value.
Recorded below: pIC50, system Caspase 3 (Homo sapiens, UniProt P42574).
RECORDED_METRIC: pIC50

INSERT INTO measurements (smiles_record, assay_result) VALUES
  ('CC(C)c1nnc2nc3c(nn12)C(=O)c1ccccc1-3', 5.30),
  ('Nc1nnc2nc3c(nn12)-c1ccccc1C3=O', 6.67),
  ('CCc1nnc2nc3c(nn12)-c1cc(OC)c(OC)cc1C3=O', 6.50);

* * *

pIC50: −log10 of the molar value.
pIC50, USP8 (Homo sapiens): measured values
RECORDED_METRIC: pIC50

INSERT INTO assay_data (compound, recorded_metric, assay_result) VALUES
  ('O=C1c2ccccc2-c2nn3c(C(F)(F)F)nnc3nc21 [Example 1m/B]', 'pIC50', 6.79),
  ('CCc1nnc2nc3c(nn12)-c1cc(OC)c(OC)cc1C3=O [Example 5b/B]', 'pIC50', 7.19),
  ('COCCOCCOCc1nnc2nc3c(nn12)C(=O)c1ccccc1-3 [Example 1n/A]', 'pIC50', 6.46),
  ('COc1cc2c(cc1OC)-c1nn3c(C)nnc3nc1C2=O [Example 5a/B]', 'pIC50', 7.34),
  ('CCc1nnc2nc3c(nn12)-c1c(OC)ccc(OC)c1C3=O [Example 6/B]', 'pIC50', 6.44),
  ('CC(C)c1nnc2nc3c(nn12)-c1ccccc1C3=O [Example 1l/B]', 'pIC50', 6.73);

* * *

Sequence of the target: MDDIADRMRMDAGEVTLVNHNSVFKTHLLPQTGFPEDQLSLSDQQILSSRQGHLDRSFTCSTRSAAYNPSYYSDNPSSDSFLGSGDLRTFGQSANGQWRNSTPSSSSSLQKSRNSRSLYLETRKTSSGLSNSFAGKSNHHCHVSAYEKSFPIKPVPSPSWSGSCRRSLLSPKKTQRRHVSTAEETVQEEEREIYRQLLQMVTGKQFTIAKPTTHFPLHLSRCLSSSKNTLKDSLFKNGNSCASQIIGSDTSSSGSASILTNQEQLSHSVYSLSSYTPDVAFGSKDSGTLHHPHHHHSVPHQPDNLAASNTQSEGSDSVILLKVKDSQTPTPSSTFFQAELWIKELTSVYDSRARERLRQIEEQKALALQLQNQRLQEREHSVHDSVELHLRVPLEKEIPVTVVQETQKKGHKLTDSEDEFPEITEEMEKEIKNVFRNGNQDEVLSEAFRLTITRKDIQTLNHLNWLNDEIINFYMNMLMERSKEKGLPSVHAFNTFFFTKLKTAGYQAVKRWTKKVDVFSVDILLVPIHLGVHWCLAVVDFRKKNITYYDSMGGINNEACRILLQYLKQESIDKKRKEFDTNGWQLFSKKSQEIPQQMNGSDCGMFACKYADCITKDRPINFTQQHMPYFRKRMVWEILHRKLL
RECORDED_METRIC: IC50 (µM)

INSERT INTO results (smiles_record, u, assay_result) VALUES
  ('CCc1nnc2nc3c(nn12)-c1cc(OC)c(OC)cc1C3=O', 'µM', 1.28);

* * *

System: PC-3 prostate cancer cells
Assay: PC3 cell viability and proliferation assay (MTS)
Type: cell-based
Conditions: Homo sapiens, PC-3, 72 hours incubation, mean of three independent experiments, read-out: PC3 GI50 D3
Description: PC-3 prostate cancer cells were obtained from ATCC, and maintained in F-12K medium containing 7% FBS and 1% penicillin/streptomycin. Cells were incubated at 37° C. in a humidified atmosphere containing 5% CO2. […] Cells were incubated with the compounds for 72 hours, and their viability then assayed by the addition of MTS for 2 hours. Absorbance at 492 nm was measured directly from the 96-well culture plates. […]
// reported GI50 per item
RECORDED_METRIC: GI50 (nM)

INSERT INTO measurements (smiles_record, assay_result) VALUES
  ('CCCCc1nnc2nc3c(nn12)C(=O)c1ccccc1-3', 3800),
  ('O=C1c2ccccc2-c2nn3c(C4CC4)nnc3nc21', 107),
  ('CCCc1nnc2nc3c(nn12)-c1ccccc1C3=O', 175),
  ('O=C1c2ccccc2-c2nc3nnc(CO)n3nc21', 4000),
  ('Cc1nnc2nc3c(nn12)-c1ccccc1C3=O', 334),
  ('COCc1nnc2nc3c(nn12)C(=O)c1ccccc1-3', 1750),
  ('CCCc1nnc2nc3c(nn12)C(=O)c1ccccc1-3', 4200),
  ('O=C1c2ccccc2-c2nn3c(Cc4ccccc4)nnc3nc21', 235),
  ('CC(C)Cc1nnc2nc3c(nn12)C(=O)c1ccccc1-3', 4000),
  ('CC(C)Cc1nnc2nc3c(nn12)-c1ccccc1C3=O', 162),
  ('CCCCc1nnc2nc3c(nn12)-c1ccccc1C3=O', 96),
  ('Cc1nnc2nc3c(nn12)C(=O)c1ccccc1-3', 7090),
  ('Nc1nnc2nc3c(nn12)-c1ccccc1C3=O', 3170),
  ('Cc1nnc2nc3c(nn12)-c1ccc(Cl)cc1C3=O', 286),
  ('O=C1c2ccccc2-c2nn3c(CO)nnc3nc21', 1440),
  ('CCc1nnc2nc3c(nn12)-c1ccccc1C3=O', 256),
  ('CCc1nnc2nc3c(nn12)C(=O)c1ccccc1-3', 5400),
  ('COCc1nnc2nc3c(nn12)-c1ccccc1C3=O', 238);
